The origin of these recorded values is a melting point compilation (Tetko et al.; mined from patent text by program, amines drawn as free bases though some values may be those of a salt).

melting point by entry:

In [3]: df
Out[3]:
                                   compound  measured_quantity  measured_value
0  CCCCc1oc2ccccc2c1-c1ncc(-c2ccc3cc(OCC#N)ccc3c2)o1      melting point          127 °C
1  CC(C)CN(CCc1c[nH]c2ccccc12)C(=O)CCCC(=O)O      melting point   140 to 141 °C
2     CC(=O)N(c1cc(N)c(F)cc1Cl)S(=O)(=O)CCl      melting point   176 to 180 °C
3  Cc1ccc(S(=O)(=O)OCC2COc3ccc([N+](=O)[O-])c(CC=O)c3O2)cc1 (configuration not stated)      melting point   116 to 120 °C
4  CS(=O)(=O)CCN1C(=O)CN=C(c2ccccc2F)c2cc(Cl)ccc21      melting point   155 to 156 °C

Fill in melting point for record `CCOc1ccc2nc3[nH]cnc(=O)c3cc2c1OC`
330 to 331 °C

Read off the recorded melting point for `CC(=O)SCCc1cn2cccnc2n1`
122 to 124 °C

Return the recorded melting point value; entry: CCOC(=O)C1=C(C)NC(c2cscn2)=NC1c1ccc(F)cc1Cl (configuration not stated)
140 to 142 °C

# return recorded melting point for entry CS(=O)c1nc(-c2ccccc2)c(-c2ccccc2)s1 (configuration not stated)
102 to 103 °C

Please give the documented melting point of `CCCCCCCCCCCCc1ccc(S(=O)(=O)Nc2nnc(CCCCCNC)s2)cc1`
158 to 160 °C

----------
MEASURED_QUANTITY: melting point

Consider the following illustrative entries.
>>> print(df.to_string())
                                   compound  measured_value
0  CC(C)(C)OC(=O)Nc1ccc(-c2ccco2)cc1[N+](=O)[O-]   169 to 172 °C
1                    COC(=S)c1nc(C)c(N)nc1N   158 to 160 °C
2       Cc1nc2c(N)nc3ccccc3c2n1OCCOc1ccccc1   237 to 239 °C

Please indicate melting point recorded for `COC(=O)c1cccc(OCCN2CCN(c3cc(Cl)nnc3Cl)CC2)c1`
105 to 107 °C

Return melting point for the following compound: `COc1cc2nc(N3CCN(C(=O)C=Cc4ccc(Br)cc4)CC3)nc(N)c2cc1OC`
266 to 268 °C

Tell me measured melting point for `CCCCCCCCCCCCCc1nnc(N)o1` please.
147 to 150 °C

Return the recorded melting point value; entry: CN1C(=O)C(C2OC(=O)c3ccccc32)N(C)C(=O)C1Cc1ccccc1 (stereo not given)
225 °C

For the compound CC1(C)CCC2(CC1S(=O)(=O)c1ccccc1)OCCO2 (stereo not given) , give its measured melting point value.
113 to 115 °C

Note melting point for the compound shown: Fc1c(Cl)cc(C(/C=C/c2ccc3[nH]ccc3c2)C(F)(F)F)cc1Cl (stereo not given)
133 to 139 °C

Write down melting point measured for item `CCCCCCCCCCCCCc1c(C(F)(F)F)noc1NS(=O)(=O)c1ccccc1`
89 °C

----------
MEASURED_QUANTITY: melting point

Examples with answers:
>>> print(df.to_string())
                                   molecule  measured_value
0   CCOC(=O)c1nn(C)c(-c2ccccc2)c1S(N)(=O)=O   141 to 144 °C
1  CC(=O)N1CCc2c(sc(C)c2CCCCN2CCC(c3noc4cc(F)ccc34)CC2)C1   158 to 160 °C
2         CN1C(=O)C[C@@H](c2ccccc2)[C@H]1CO     93 to 95 °C
3  COC(=O)CC[C@H](NC(=O)c1ccc(NCC(=O)OCc2ccccc2)cc1)C(=O)OC           82 °C
4  COC(=O)C1=C(C)NC(CO)=C(C(=O)OC)C1c1cccc2c(=O)c(C)c(-c3ccccc3)oc12 (stereo not given)   231 to 233 °C

Supply measured melting point of `CN(C)c1ccc(-c2cc(=S)ss2)nn1` in your reply.
265 °C

Indicate the recorded melting point value for this molecule: CCc1cc2[nH]c(=O)oc2cc1NCC1CCCOC1 (stereo not given)
148 °C

Let me know recorded melting point for `Fc1ccc(-c2cc3ccccc3[nH]c2=S)cc1` , thanks.
259 to 262 °C

Answer with reported melting point of `Nc1nc(N2CCCC2)c2ncn([C@@H]3C[C@H](CO)[C@@H](O)C3)c2n1`
114 to 117 °C

# return recorded melting point for entry `CCn1c(=O)c2[nH]c(/C=C/c3ccc(OC)c(OC)c3Cl)nc2n(CC)c1=O`
278 to 281 °C

----------
Measured melting point values are reported for all entries that follow.

Some compounds with recorded melting point:
In [3]: df
Out[3]:
                                smiles_code  measured_quantity  measured_value
0  CCOC(=O)Cc1cccc(-c2nc(COc3ccc(CO)cc3OC)c(C)o2)c1      melting point     96 to 98 °C
1  CC(=O)Nc1ccc(C(=O)N2CC3CC(CN(Cc4ccc(Cl)cc4)C3)C2)cc1      melting point          181 °C
2  CCCC1=C(Cl)C(=O)c2oc(Cc3ccc(OC)c(Cl)c3)c(C)c2C1=O      melting point   134 to 136 °C
3  Cc1nc2c(c(=O)[nH]1)-c1cc(S(=O)(=O)Nc3ccc(F)cc3)ccc1CC2      melting point        > 260 °C
4           CCCC(=O)c1cnc2ccsc2c1Nc1ccccc1C      melting point   114 to 116 °C
5           Cc1ccc(-c2nc3cccnc3n2CC(=O)O)s1      melting point        > 250 °C
6  COC(=O)C(=Cc1cc(OC)cc(OC)c1)c1ccc(Oc2ccc(C=C3SC(=O)NC3=O)cc2)cc1      melting point   126 to 128 °C
7  CN1CCN(Cc2cc(NC(=O)Nc3ccc(Oc4cc(Cl)ncn4)cc3)cc(C(F)(F)F)c2)CC1      melting point   291 to 292 °C

Please give the documented melting point of `Cc1ccc(S(=O)(=O)NC(=O)Nc2c(Br)cc(Br)cc2Br)cc1`
230 °C

Respond only with melting point recorded for `Cc1nc(Nc2ccccc2)nc(C#N)c1C`
181 to 184 °C

----------
MEASURED_QUANTITY: melting point

Example entries and their recorded answers appear below.
In [3]: df
Out[3]:
                                   compound  measured_value
0     C=CCOc1cc2c(cc1CC=C)CCC(=O)N2CC=C(C)C     20 to 28 °C
1  O=C(c1ccccc1)c1nc2cc(C(c3ccccc3)n3ccnc3)ccc2[nH]1 (stereo not given)          223 °C
2  COc1ccc(C=CC(=O)c2c(OC)cc(OC)cc2OC(=O)c2ccc(OC)cc2)cc1   111 to 112 °C
3  COc1ccc2c(c1)C(=O)N(c1ccc3nc(C)ncc3c1)C2   245 to 247 °C

Here is the next item to consider.
Please list melting point recorded for the compound Cc1ccc(C2CC(n3ccnc3)c3ccccc3N2)cc1 (stereo not given)
152 to 154 °C

----------
Item-by-item account of melting point

>>> print(df.to_string())
                                   compound  measured_quantity  measured_value
0  CS(=O)(=O)c1ccc(-c2c(-c3ccc(Cl)cc3)[nH]c3ccc(Cl)cc23)cc1      melting point   269 to 271 °C
1    COc1cnc(Cl)nc1NS(=O)(=O)c1cccc(Cl)c1Cl      melting point   244 to 245 °C
2     CN(CCO)c1ccnc(CSc2nc3ccccc3[nH]2)c1Cl      melting point   132 to 135 °C

Supply reported melting point belonging to this compound: CC(C#CCOc1cccc(Oc2cccnc2)c1)N(O)C(N)=O (stereo not given)
131 to 132 °C

Using the record for `CC(=O)c1cc2c(Sc3ccc(C)cc3)cncc2s1` , state its measured melting point.
134 to 138 °C

Give a short answer stating reported melting point for `COc1ccc(-c2nnc3c4ccccc4c(Cl)nn23)cc1` .
192 to 193 °C

Specify melting point for `Fc1ccc(F)c(CN2CCNc3ncc(I)cc32)c1Cl` and stop.
156 to 157 °C

Determine from records and report melting point for CC(C)(C)Sc1cccc(CCC(O)c2ccccc2)c1NC(=O)CC1c2ccccc2Oc2ccccc21 (stereo not given)
145 to 147 °C

Note melting point for the compound shown: COc1ccc(Oc2ccc3c(c2)SC(c2ccc(OC)cc2)C(O)C(=O)N3)cc1 (stereo not given)
213 to 214 °C

Tell me measured melting point for COc1cc2c(cc1OC)CC(NC(=O)C1CCCN1)CC2 (stereo not given) please.
108 to 109 °C
